# credit: patent US11851449B2

Listed here are compounds together with their documented inhibition at 1 µM.
Molecular target: RORγt (Homo sapiens)
Sequence (P51449 1-497 isoform P51449-2): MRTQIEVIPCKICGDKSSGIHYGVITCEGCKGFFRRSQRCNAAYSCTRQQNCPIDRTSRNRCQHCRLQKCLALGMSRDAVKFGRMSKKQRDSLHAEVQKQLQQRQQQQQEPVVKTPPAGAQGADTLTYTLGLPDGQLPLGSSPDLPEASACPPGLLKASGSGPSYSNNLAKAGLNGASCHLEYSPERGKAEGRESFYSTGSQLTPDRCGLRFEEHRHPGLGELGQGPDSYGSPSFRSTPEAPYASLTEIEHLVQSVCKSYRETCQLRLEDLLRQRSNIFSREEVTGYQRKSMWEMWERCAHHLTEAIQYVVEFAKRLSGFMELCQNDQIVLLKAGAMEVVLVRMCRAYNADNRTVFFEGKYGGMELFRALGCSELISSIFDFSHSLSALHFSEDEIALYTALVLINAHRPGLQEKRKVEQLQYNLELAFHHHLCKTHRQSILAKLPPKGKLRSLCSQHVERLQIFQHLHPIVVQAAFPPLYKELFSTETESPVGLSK
Assay: RORγt binding test (TR-FRET, fluorescent-labeled cholesterol)
Details: read-out: binding inhibitory rate (%) of fluorescent-labeled cholesterol to RORγt at test compound 1 μM
Return type: number; implicit unit %.

Worked cases, inhibition at 1 µM given:
COMPOUND: COc1ccc([C@@H](NC(=O)N2CC[C@H](O)C2)C(=O)Nc2ccc([Si](C)(C)C)c(F)c2)cc1
inhibition at 1 µM, %: 102
//
COMPOUND: COCc1ccc([C@@H](NC(=O)C2CNC(=O)C2)C(=O)Nc2ccc(CC(C)(C)C)c(F)c2)cc1 (stereo in doubt)
inhibition at 1 µM, %: 102
//
COMPOUND: CC(C)(C)c1ccc(NC(=O)[C@H](NC(=O)[C@@H](O)C(F)(F)F)C2CCOCC2)cc1Cl
inhibition at 1 µM, %: 102
//
COMPOUND: COCc1ccc([C@@H](NC(=O)CNC(C)=O)C(=O)Nc2ccc([Si](C)(C)C)c(F)c2)cc1
inhibition at 1 µM, %: 102

## Task Please report the recorded inhibition at 1 µM for C[Si](C)(C)c1c(F)cc(NC(=O)C(NC(=O)Cn2cnccc2=O)C2CCOCC2)cc1F (centres unmarked) .
## Result 100
